Entries annotated with measured Ki
Target: Sigma non-opioid intracellular receptor 1 (Homo sapiens)
Sequence (Q99720 whole entry): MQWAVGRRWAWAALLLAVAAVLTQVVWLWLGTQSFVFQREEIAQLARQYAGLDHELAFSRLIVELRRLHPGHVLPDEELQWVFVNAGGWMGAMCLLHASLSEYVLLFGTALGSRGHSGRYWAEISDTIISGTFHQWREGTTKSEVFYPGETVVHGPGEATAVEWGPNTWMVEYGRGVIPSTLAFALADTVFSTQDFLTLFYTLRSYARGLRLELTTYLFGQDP
Experiment: Binding affinity to sigma-1 receptor (unknown origin)
Respond with the figure and its unit, in that order.

| molecule | Ki |
| --- | --- |
| COc1cc2c(cc1OC)CN(CCCCNC(=O)c1cc(I)cc(OC)c1OCC[18F])CC2 | 2.15 µM |

Return reported Ki. Input molecule: c1ccc2c(c1)c1ccccc1n2CCCN1CCN(C2CCCCC2)CC1
3.45 µM

Please give measured Ki of the following entry: CCn1c(=O)n(C(=O)NC2C[C@@H]3CC[C@@H](C2)N3C)c2ccccc21 (stereo not given in full)
6.3 µM

For the molecule CC[C@H]1C[C@@H]2C[C@H]3c4[nH]c5ccc(OC)cc5c4CCN(C2)[C@@H]13 , give its reported Ki.
9.31 µM

For the molecule COc1ccc(C)cc1NC(=O)OC1C[C@H]2CCC[C@H](C1)N2CCCCCCN (stereo not given in full) , give its reported Ki.
1.42 µM

###

A collection of compounds and their measured pKi
Biological target: Sigma intracellular receptor 2 (Homo sapiens, UniProt Q5BJF2)
Sequence (Q5BJF2 whole entry): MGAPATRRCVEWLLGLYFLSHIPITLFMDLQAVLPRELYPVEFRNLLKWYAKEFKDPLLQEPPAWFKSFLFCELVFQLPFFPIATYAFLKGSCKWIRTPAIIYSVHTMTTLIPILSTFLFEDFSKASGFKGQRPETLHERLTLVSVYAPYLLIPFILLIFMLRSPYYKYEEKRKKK
Experiment: Binding affinity to sigma-2 receptor (unknown origin)
Just so you know, pKi here is -log10 of the concentration in molar units; reply with that number alone.

// solved cases for pKi follow
| compound | pKi |
| --- | --- |
| COc1ccc(C)cc1NC(=O)OC1C[C@H]2CCC[C@H](C1)N2CCCCCCN (stereo not given in full) | 8.28 |
| c1ccc2c(c1)c1ccccc1n2CCCN1CCN(C2CCCCC2)CC1 | 7.90 |
| CC[C@H]1C[C@@H]2C[C@H]3c4[nH]c5ccc(OC)cc5c4CCN(C2)[C@@H]13 | 7.04 |
| COc1cc2c(cc1OC)CN(CCCCNC(=O)c1cc(I)cc(OC)c1OCC[18F])CC2 | 9.59 |

Note pKi for the compound shown: CCn1c(=O)n(C(=O)NC2C[C@@H]3CC[C@@H](C2)N3C)c2ccccc21 (stereo not given in full)
7.49

###

Assay: Selectivity ratio of Ki for sigma-1 receptor in guinea pig brain membranes to Ki for sigma-2 receptor in Sprague-Dawley rat liver membranes
Assay type: cell membranes
assayReadout: Ratio Ki

| compound | Ratio Ki |
| --- | --- |
| COc1ccc(C(=O)CCN2CCc3cc(OC)c(OC)cc3C2)c(C)c1 | 0.5 |
| COc1ccc(C(=O)CCCCN2CCc3cc(OC)c(OC)cc3C2)c(OC)c1 | 5.6 |

Here is the next item to consider.
Quickly give me recorded Ratio Ki for COc1ccc(C(O)CCN2CCc3cc(OC)c(OC)cc3C2)c(OC)c1 (configuration not stated)
> 33

###

Reported pIC50 by item:
Tested on: Huh-7
Assay: Cytotoxicity against human HuH7 cells after 48 hrs by CCK8 assay
Type: functional, cell-based
Conditions: Huh-7, 48 h
pIC50: −log10 of the molar value.

Reference set (8 entries):
| compound | pIC50 |
| --- | --- |
| COc1cc2c(cc1OC)CN(CCCn1cnc3cc(OC)c(OC)cc3c1=O)CC2 | < 7.00 |
| COc1cc2c(cc1OC)CN(CCCCn1cnc3cc(Cl)c([N+](=O)[O-])cc3c1=O)CC2 | < 7.00 |
| COc1ccc(C(=O)CCN2CCc3cc(OC)c(OC)cc3C2)c(OC)c1 | 4.12 |
| COc1ccc(C(=O)CCCCN2CCc3cc(OC)c(OC)cc3C2)c(C)c1 | < 7.00 |
| COc1ccc(C(O)CN2CCc3cc(OC)c(OC)cc3C2)c(OC)c1 (stereo not given) | < 7.00 |
| COc1ccc(C(O)CCCCN2CCc3cc(OC)c(OC)cc3C2)c(C)c1 (stereo not given) | 4.90 |
| COc1cc2c(cc1OC)CN(CCC(=O)c1c(C)c(OC)c(OC)c(OC)c1O)CC2 | 4.09 |
| COc1cc2c(cc1OC)CN(CCCCn1cnc3cc(OC)c(OC)cc3c1=O)CC2 | < 7.00 |

Please report the measured pIC50 for COc1ccc(C(=O)CCN2CCc3cc(OC)c(OC)cc3C2)c(C)c1 tested on Huh-7.
4.37

Please look at COc1ccc(C(=O)CCCCN2CCc3cc(OC)c(OC)cc3C2)c(OC)c1 and tell me its recorded pIC50 on Huh-7.
< 7.00

Look up and report measured pIC50 (Huh-7) for the following compound: COc1ccc(C(=O)CN2CCc3cc(OC)c(OC)cc3C2)c(OC)c1
< 7.00

Enter measured pIC50, system Huh-7, for the compound shown: COc1ccc(C(O)CCN2CCc3cc(OC)c(OC)cc3C2)c(OC)c1 (stereo not given)
4.34

Provide measured pIC50 on Huh-7 for COc1ccc(C(O)CCN2CCc3cc(OC)c(OC)cc3C2)c(C)c1 (stereo not given) please.
< 7.00

Output reported pIC50 of the compound COc1cc2c(cc1OC)CN(CCCn1cnc3cc(Cl)c([N+](=O)[O-])cc3c1=O)CC2 on Huh-7.
< 7.00

Fill in pIC50 for COc1cc2c(cc1OC)CN(CCn1cnc3cc(Cl)c([N+](=O)[O-])cc3c1=O)CC2 tested with Huh-7.
< 7.00

###

Documented Ratio Ki across a set of compounds
Assay: Selectivity ratio of Ki for sigma-1 receptor in guinea pig brain membranes to Ki for sigma-2 receptor in Sprague-Dawley rat liver membranes
Type: cell membranes

Worked set:
| compound | val |
| --- | --- |
| COc1ccc(C(=O)CCCCN2CCc3cc(OC)c(OC)cc3C2)c(C)c1 | > 196 |
| COc1ccc(C(O)CN2CCc3cc(OC)c(OC)cc3C2)c(OC)c1 (centres undefined) | > 16 |
| COc1cc2c(cc1OC)CN(CCCCn1cnc3cc(OC)c(OC)cc3c1=O)CC2 | > 22.8 |
| COc1cc2c(cc1OC)CN(CCCn1cnc3cc(OC)c(OC)cc3c1=O)CC2 | > 71.9 |

// fetch Ratio Ki given entry COc1ccc(C(=O)CN2CCc3cc(OC)c(OC)cc3C2)c(OC)c1
> 18

Fill in reported Ratio Ki for this entry: COc1ccc(C(=O)CCN2CCc3cc(OC)c(OC)cc3C2)c(OC)c1
> 14

Return Ratio Ki (reported value) for this compound: COc1ccc(C(O)CCCCN2CCc3cc(OC)c(OC)cc3C2)c(C)c1 (centres undefined)
> 192

Give the reported value of Ratio Ki for this record: COc1ccc(C(O)CCN2CCc3cc(OC)c(OC)cc3C2)c(C)c1 (centres undefined)
> 55

Indicate its recorded Ratio Ki; the compound in question is COc1ccc(C(O)CCCCN2CCc3cc(OC)c(OC)cc3C2)c(OC)c1 (centres undefined)
> 161

Origin of the recorded values: ChEMBL document CHEMBL4145543
